Provenance of the data: patent US20230406849A1

Biological target: CYP2C19 (Homo sapiens)
Construct: Human liver microsomes (Corning, Cat #452161); tissue Corning 452161; host or cells: human liver microsomes
Sequence (P33261 whole entry): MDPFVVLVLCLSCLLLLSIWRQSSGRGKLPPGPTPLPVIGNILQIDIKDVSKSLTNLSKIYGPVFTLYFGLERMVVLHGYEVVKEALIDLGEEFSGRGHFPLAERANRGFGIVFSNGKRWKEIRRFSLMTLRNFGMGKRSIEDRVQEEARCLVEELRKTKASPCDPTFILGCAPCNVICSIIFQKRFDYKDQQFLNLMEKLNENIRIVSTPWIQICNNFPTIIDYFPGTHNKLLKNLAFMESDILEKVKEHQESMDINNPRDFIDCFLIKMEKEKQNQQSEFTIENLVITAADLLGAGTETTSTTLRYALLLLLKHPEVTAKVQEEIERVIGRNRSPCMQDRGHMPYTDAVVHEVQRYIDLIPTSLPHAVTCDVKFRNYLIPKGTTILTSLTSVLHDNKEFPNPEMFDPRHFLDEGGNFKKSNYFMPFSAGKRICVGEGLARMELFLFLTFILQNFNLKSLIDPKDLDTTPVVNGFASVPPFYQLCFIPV
Experiment: CYP inhibition in human liver microsomes
Type: in vitro ADME
Details: pH 7.4, read-out: CYP inhibition rate (%) 2C19

Molecule | inhibition at 45 min, 10 µM [%]
C=CC(=O)N1CCN(c2c(C#N)cnc3c(F)c(-c4ccc(F)c5sc(N)nc45)c(Cl)cc23)CC1 [Example 9] | 34.9
C=CC(=O)N1CCN(c2ncnc3c(F)c(-c4ccc(F)c5sc(N)nc45)c(Cl)cc23)CC1 [Ref. Comp. A, reference compound] | 74.3
C=CC(=O)N1CCN(c2c(C#N)cnc3c(F)c(-c4ccc(F)c5sc(N)nc45)c(Cl)cc23)C[C@H]1C [Example 8] | 31.2
C=CC(=O)N1CCN(c2nc(=O)n(-c3c(C)ccnc3C(C)C)c3nc(-c4c(O)cccc4F)c(F)cc23)[C@@H](C)C1 (atropisomer, axis not shown) [AMG510, reference compound] | 11.1
